test system: SK-OV-3 ovarian; test: NCI-60 one-dose screen, 48 h (100 = growth as untreated, 0 = no growth, -100 = all killed); conditions: 10 µM
This is part of a sample that, as a whole, favours compounds with a hit. Of some 83,000 tested, about 20% had one in any assay.
# binning rule on growth: band 1: < 60%; band 2: ≥ 60% and < 90%; band 3: ≥ 90%

COMPOUND	CLASS ASSIGNMENT
Nc1nc(N)c(N)c(Nc2ccc(CCO)cc2)n1	band 3
CC[C@@H](C(=O)[C@@H](C)[C@@H](O)[C@H](C)[C@@H]1O[C@@H]([C@@H](CC)C(=O)O)CC[C@@H]1C)C1O[C@]2(C=CC(=O)[C@]3(CC[C@@](C)([C@H]4CC[C@](O)(CC)[C@H](C)O4)O3)O2)[C@H](C)C[C@@H]1C (some centres undefined)	band 2
CN(C)c1ccc(/C=N/NC(=O)c2ccccc2Nc2cccc(C(F)(F)F)c2)cc1	band 3
CN1C(C(=O)Nc2ccccn2)=C(O)c2sc(Cl)cc2S1(=O)=O	band 3
O=C(CC(CC(=O)c1ccccc1)c1ccccc1O)c1ccccc1	band 3
Nc1nc(Cl)nc2c1ncn2C1O[C@H](CO)[C@@H](O)[C@@H]1F (some centres undefined)	band 1
CN1CCN(CCC(=O)Nc2cccc(-n3cc(-c4ccncc4)c(-c4ccc(Cl)c(O)c4)n3)c2)CC1	band 1
CC(C1=C(CN(C(=O)Cc2cn(-c3ccccc3)nc2-c2ccc(Cl)cc2)C(C)C)Cc2ccccc21)c1ccccn1 (centres undefined)	band 2
COc1cc2c3c(n([C@@H]4CCOC4)c(=O)c2cc1OC)-c1cc2c(cc1C3=O)OCO2	band 1
COc1ccc(Cl)cc1Nc1nc(C(F)(F)F)ccc1C(=O)N/N=C/c1ccc(Cl)cc1	band 1
COc1cc(-c2nn(-c3cccc(NC(=O)NCCNS(=O)(=O)c4ccc(Cl)cc4)c3)cc2-c2ccncc2)ccc1Cl	band 1
CCN(CC)CCOc1ccc2c(c1O)C(=O)c1ccccc1C2=O	band 2
COc1cc(Cc2cc(-c3ccccc3)n[nH]c2=O)cc(OC)c1OC	band 2
CCCCN(CCCC)C(=O)[C@H](CC)[C@@H]1CC[C@@H](C)[C@@H]([C@H](C)[C@@H](O)[C@@H](C)C(=O)[C@H](CC)C2O[C@]3(C=CC(=O)[C@]4(CC[C@@](C)([C@H]5CC[C@](O)(CC)[C@H](C)O5)O4)O3)[C@H](C)C[C@@H]2C)O1 (some centres undefined)	band 1
Cc1[nH]c2ccccc2c1/C=N/Nc1ncnc2sc3c(c12)CCN(CC(=O)OC(C)(C)C)C3	band 3
COc1cc(N)c2ncccc2c1SC	band 3
Cc1ccc(C(SCC(N)C(=O)O)(c2ccc(C)cc2)c2ccc(C)cc2)cc1 (centres undefined)	band 1
Cc1ccc(-c2c3c(N)nc(-c4cccnc4)nc3nc3c2c(C)nn3-c2ccccc2)cc1	band 2
CC(C)CCN(CCC(C)C)CC(=O)Nc1ccc(S(=O)(=O)c2ccc(NC(=O)CN(CCC(C)C)CCC(C)C)cc2)cc1	band 2
CC(C)C1=C(O)C2=C(C(=O)C1=O)[C@@]1(C)CCCC(C)(C)[C@@H]1CC2	band 3
CCn1cc(C(=O)O)c(=O)c2cc(F)c(N3CCNCC3)cc21	band 3
COc1cc(-c2nn(-c3cccc(NC(=O)CCNc4ccc(N5CCOCC5)cc4)c3)cc2-c2ccncc2)ccc1Cl	band 1
O=[N+]([O-])c1cccc(/C=N/NC(=S)NC23CC4CC(CC(C4)C2)C3)c1	band 2
CC1(C)N=C(N)N=C(N)N1c1cccc(C#N)c1	band 2
O=C(O)c1ccc(-n2cc(CNc3ccc(Cl)cc3)c(-c3ccccc3)n2)cc1	band 3
CCCN1CN2C(=O)N3CN(CCC)CN4C(=S)N(C1)C2C34 (centres undefined)	band 2
COc1ccc(CCN2CCC(Nc3nc4ccccc4n3Cc3ccc(F)cc3)CC2)cc1	band 1
NS(=O)(=O)Oc1ccc(-c2ccc3sccc3c2)cc1	band 3
OCC1OC2C(NC(=S)N2c2ccccc2)C(O)C1O (centres undefined)	band 3
Nc1ccccc1NC(=O)c1ccc(CCCC(=O)Nc2ccc(C3CC3N)cc2)cc1 (centres undefined)	band 1
Oc1ccc(-c2[nH]c3ccccc3c2-c2nc3ccccc3o2)cc1	band 2
CCOC(=O)c1cc(C(=O)c2cc(OC)cc(OC)c2)n2ncc3ccccc3c12	band 1
